- test-system: SOS1:KRAS (G12C) interaction (Homo sapiens (Human))
- method: SOS1 KRas(G12C) FRET Assay
- reported-conditions: 0.5 nM His10-SOS1 (res. 564-1049), 2.5 nM GST-KRAS G12C (res. 1-169), 2 hrs at RT
pIC50: −log10 of the molar value.
property-measured: pIC50

Look over these answered cases.
COCCN1CC(CNc2cc(=O)n(C3CCOCC3)cc2C(=O)N[C@H](C)c2cccc(C(F)(F)F)c2C)C1 [Example 295] = 7.27
C[C@@H](NC(=O)c1cn([C@@H]2CCC2(F)F)c(=O)cc1N[C@H]1[C@@H]2CN(C)C[C@@H]21)c1cccc(C(F)(F)F)c1 (single isomer, unassigned) [Example 256] = 7.86
C[C@@H](NC(=O)c1cn(C2(C(F)(F)F)CC2)c(=O)cc1N[C@H]1[C@@H]2CC[C@H]1CN(C)C2)c1cccc(C(F)F)c1F (single isomer, unassigned) [Example 139] = 7.30
C[C@@H](NC(=O)c1cn(C2(C(F)F)CC2)c(=O)cc1N[C@H]1[C@@H]2CN(C)C[C@@H]21)c1cccc(C(F)(F)F)c1F [Example 130] = 7.57

1. C[C@@H](NC(=O)c1cn(C2(C(C)(F)F)CC2)c(=O)cc1NC1CCN(C)CC1)c1cccc(C(F)F)c1F [Example 230]
2. C[C@@H](NC(=O)c1cn([C@H]2CCC2(F)F)c(=O)cc1N[C@H]1[C@@H]2CN(C)C[C@@H]21)c1cccc(C(C)(F)F)c1F (single isomer, unassigned) [Example 148]
Request: Rank 1 against 2 by their pIC50 values and give the higher one. When you have decided, please share the label of that item.
Response: 2
(2: 8.13, 1: 7.66)

----------
- test-system: SOS1:KRAS (G12C) interaction (Homo sapiens (Human))
- method: SOS1 KRas(G12C) FRET Assay
- reported-conditions: 0.5 nM His10-SOS1 (res. 564-1049), 2.5 nM GST-KRAS G12C (res. 1-169), 2 hrs at RT
property-measured: IC50 (nM)

C[C@@H](NC(=O)c1cn(C23CC(F)(C2)C3)c(=O)cc1N[C@H]1[C@@H]2CN(C)C[C@@H]21)c1cccc(C(F)F)c1F = 12.1
Cc1c([C@@H](C)NC(=O)c2cn(C3CCOCC3)c(=O)cc2N[C@H]2CCCN(C)C2)cccc1C(F)(F)F = 56.7
CC(NC(=O)c1cn(C2(C(F)F)CC2)c(=O)cc1NC1CCN(C)CC1)c1cccc(C(F)(F)F)c1Cl (stereo not drawn) = 40.9

1. CO[C@@H]1CN(C)CC[C@H]1Nc1cc(=O)n(C2CCOCC2)cc1C(=O)N[C@H](C)c1cccc(C(F)(F)F)c1C (single isomer, unassigned)
2. C[C@@H](NC(=O)c1cn(C23CC(C2)C3)c(=O)cc1N[C@H]1[C@@H]2CNC[C@@H]21)c1cccc(C(F)F)c1F
3. C[C@@H](NC(=O)c1cn(C2(C(F)F)CC2)c(=O)cc1N[C@H]1[C@@H]2CC[C@H]1CNC2)c1cccc(C(F)F)c1F (single isomer, unassigned)
Request: Ascending by IC50, please. Use the labels to give the requested order.
Response: 3, 2, 1

----------
- test-system: SOS1:KRAS (G12C) interaction (Homo sapiens (Human), UniProt Q07889)
- Sequence (Q07889 564-1049, stated change not applied): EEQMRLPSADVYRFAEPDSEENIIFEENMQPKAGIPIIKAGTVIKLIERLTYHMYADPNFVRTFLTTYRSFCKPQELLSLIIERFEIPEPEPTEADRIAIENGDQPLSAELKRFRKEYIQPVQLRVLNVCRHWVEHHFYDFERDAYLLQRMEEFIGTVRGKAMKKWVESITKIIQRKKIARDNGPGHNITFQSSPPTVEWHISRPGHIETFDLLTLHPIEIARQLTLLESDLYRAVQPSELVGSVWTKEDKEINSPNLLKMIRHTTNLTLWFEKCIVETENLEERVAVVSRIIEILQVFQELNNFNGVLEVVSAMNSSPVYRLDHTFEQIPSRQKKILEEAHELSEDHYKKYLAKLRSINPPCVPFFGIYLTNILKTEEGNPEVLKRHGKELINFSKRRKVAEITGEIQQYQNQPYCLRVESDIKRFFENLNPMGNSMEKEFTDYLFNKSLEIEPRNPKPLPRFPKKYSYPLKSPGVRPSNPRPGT
- method: SOS1 KRas(G12C) FRET Assay
- reported-conditions: 0.5 nM His10-SOS1 (res. 564-1049), 2.5 nM GST-KRAS G12C (res. 1-169), 2 hrs at RT
pIC50: −log10 of the molar value.
property-measured: pIC50

Look over these answered cases.
C[C@@H](NC(=O)c1cn(C2CC23CCC(F)(F)CC3)c(=O)cc1N[C@H]1[C@@H]2CN(C)C[C@@H]21)c1cccc(C(F)F)c1F (stereo partly drawn) = 7.94
C[C@@H](NC(=O)c1cn([C@]2(C(F)(F)F)CCOC2)c(=O)cc1NC1CCN(C)CC1)c1cccc(C(F)F)c1F = 8.32
C[C@@H](NC(=O)c1cn(C2(C(F)F)CC2)c(=O)cc1NC1CCN(C)C2(CC2)C1)c1cccc(C(F)F)c1F (stereo partly drawn) = 7.87
C[C@@H](NC(=O)c1cn(C23CC(C2)C3)c(=O)cc1N[C@@H]1CCN(C)C[C@@H]1F)c1cccc(C(F)F)c1F (single isomer, unassigned) = 8.44
C[C@@H](NC(=O)c1cn([C@@H]2CCC2(F)F)c(=O)cc1N[C@H]1[C@@H]2CN(C)C[C@@H]21)c1cccc(C(F)F)c1F (single isomer, unassigned) = 8.24

a. C[C@@H](NC(=O)c1cn(C2(C(F)F)CC2)c(=O)cc1N[C@H]1[C@@H]2CN(C)C[C@@H]21)c1cccc(C(C)(F)F)c1F
b. C[C@@H](NC(=O)c1cn(C2(C(F)F)CC2)c(=O)cc1N[C@@H]1[C@@H]2CC[C@H]1CN(C)C2)c1cccc(C(F)F)c1F [Example 294]
c. C[C@@H](NC(=O)c1cn(C2CC(F)(F)C2)c(=O)cc1N[C@@H]1[C@@H]2CC[C@H]1CN(C)C2)c1cccc(C(F)F)c1F (single isomer, unassigned)
d. C[C@@H](NC(=O)c1cn([C@H]2CCC2(F)F)c(=O)cc1N[C@H]1[C@@H]2CN(C)C[C@@H]21)c1cccc(C(F)(F)F)c1F (single isomer, unassigned)
Request: Ascending by pIC50, please. Use the labels to give the requested order.
Response: b, a, c, d
(b: 7.27, a: 7.54, c: 7.98, d: 8.40)

----------
- test-system: SOS1:KRAS (G12C) interaction (Homo sapiens (Human), UniProt Q07889)
- method: SOS1 KRas(G12C) FRET Assay
- reported-conditions: 0.5 nM His10-SOS1 (res. 564-1049), 2.5 nM GST-KRAS G12C (res. 1-169), 2 hrs at RT
pIC50: −log10 of the molar value.
property-measured: pIC50

Look over these answered cases.
Cc1c([C@@H](C)NC(=O)c2cn(C3CCOCC3)c(=O)cc2NC2CCN(CC(F)(F)F)CC2)cccc1C(F)(F)F [Example 15] = 6.07
C[C@@H](NC(=O)c1cn(C2CC(F)(F)C2)c(=O)cc1N[C@H]1[C@@H]2CN(C)C[C@@H]21)c1cccc(C(F)F)c1F [Example 100] = 7.74
Cc1c([C@@H](C)NC(=O)c2cn(C3CCOCC3)c(=O)cc2NCCCN(C)C)cccc1C(F)(F)F [Example 9] = 7.41
Cc1c([C@@H](C)NC(=O)c2cn(C3CCOCC3)c(=O)cc2NC[C@H]2CC[C@H](N(C)C)CC2)cccc1C(F)(F)F [Example 301] = 7.34

a. C[C@@H](NC(=O)c1cn([C@]2(C(F)(F)F)CCOC2)c(=O)cc1N[C@H]1[C@@H]2CN(C)C[C@@H]21)c1cccc(C(F)F)c1F (single isomer, unassigned) [Example 235]
b. C[C@@H](NC(=O)c1cn(C2(C(F)F)CC2)c(=O)cc1N[C@H]1C[C@H]2C[C@@H]1CN2C)c1cccc(C(F)F)c1F (single isomer, unassigned) [Example 236]
Request: Compare pIC50: is it lower for a or for b ? When you have decided, please share the label of that item.
Response: a

----------
- test-system: SOS1:KRAS (G12C) interaction (Homo sapiens (Human), UniProt Q07889)
- method: SOS1 KRas(G12C) FRET Assay
- reported-conditions: 0.5 nM His10-SOS1 (res. 564-1049), 2.5 nM GST-KRAS G12C (res. 1-169), 2 hrs at RT
property-measured: IC50 (µM)

C[C@@H](NC(=O)c1cn([C@H]2C[C@@H](F)C2)c(=O)cc1N[C@H]1[C@@H]2CN(C)C[C@@H]21)c1cccc(C(F)F)c1F = 0.0157
Cc1c(C#N)cccc1[C@@H](C)NC(=O)c1cn([C@H]2[C@H](C)C2(F)F)c(=O)cc1N[C@H]1[C@@H]2CN(C)C[C@@H]21 (single isomer, unassigned) = 0.0193
C[C@@H](NC(=O)c1cn([C@@H]2C[C@H]2C2CC2)c(=O)cc1NC1CCN(C)CC1)c1cccc(C(F)F)c1F (single isomer, unassigned) = 0.0046
Cc1c([C@@H](C)NC(=O)c2cn(C3CCOCC3)c(=O)cc2N[C@@H]2CCCN(C)C2)cccc1C(F)(F)F = 0.0355
Cc1cc([C@@H](C)NC(=O)c2cn(C3(C(F)F)CC3)c(=O)cc2NC2CCN(C)CC2)cc(C(F)(F)F)n1 (single isomer, unassigned) = 1.25

1. Cc1c([C@@H](C)NC(=O)c2cn(C3CCOCC3)c(=O)cc2NCC2CN(C)C2)cccc1C(F)(F)F
2. C[C@@H](NC(=O)c1cn([C@@H]2CC2(C)C)c(=O)cc1N[C@H]1[C@@H]2CN(C)C[C@@H]21)c1cccc(C(F)F)c1F (single isomer, unassigned)
3. COC12CC(CNc3cc(=O)n(C45CC(C4)C5)cc3C(=O)N[C@H](C)c3cccc(C(F)F)c3F)(C1)C2
4. C[C@@H](NC(=O)c1cn(C2(C3CCC3)CC2)c(=O)cc1NC1CCN(C)CC1)c1cccc(C(F)F)c1F
Request: Ascending by IC50, please. Use the labels to give the requested order.
Response: 2, 4, 1, 3

a. C[C@@H](NC(=O)c1cn([C@@H]2C[C@@H]2C)c(=O)cc1N[C@H]1[C@@H]2CN(C)C[C@@H]21)c1cccc(C(F)F)c1F (single isomer, unassigned)
b. C[C@@H]1[C@@H](n2cc(C(=O)N[C@H](C)c3cccc(C(F)F)c3F)c(N[C@H]3[C@@H]4CN(C)C[C@@H]43)cc2=O)C1(F)F (single isomer, unassigned)
Request: Compare IC50: is it lower for a or for b ? When you have decided, please share the label of that item.
Response: b

I. C[C@@H](NC(=O)c1cn([C@@H]2CCC2(F)F)c(=O)cc1N[C@H]1[C@@H]2CN(C)C[C@@H]21)c1cccc(C(C)(F)F)c1F (single isomer, unassigned)
II. C[C@@H](NC(=O)c1cn([C@H]2CCC2(F)F)c(=O)cc1N[C@H]1[C@@H]2CC[C@H]1CN(C)C2)c1cccc(C(F)F)c1F
Request: Rank I against II by their IC50 values and give the higher one. When you have decided, please share the label of that item.
Response: I
(I: 0.0616 µM, II: 0.0043 µM)

a. C[C@@H](NC(=O)c1cn(C2(C(F)F)CC2)c(=O)cc1N[C@H]1[C@@H]2CN(C)C[C@@H]21)c1cccc(C(F)(F)c2ccncc2)c1F
b. C[C@@H](NC(=O)c1cn(C2(C(F)F)CCC2)c(=O)cc1N[C@H]1[C@@H]2CN(C)C[C@@H]21)c1cccc(C(F)F)c1F
c. C[C@@H](NC(=O)c1cn(C2(C(F)F)CC2)c(=O)cc1NCCN(C)C)c1cccc(C(F)F)c1F
d. C[C@@H](NC(=O)c1cn(C2CCC2)c(=O)cc1N[C@H]1[C@@H]2CN(C)C[C@@H]21)c1cccc(C(F)F)c1F
e. C[C@@H](NC(=O)c1cn(C2(C(F)F)CC2)c(=O)cc1N[C@H]1[C@@H]2CNC[C@@H]21)c1cccc(C(F)F)c1F
Request: // sort entries: IC50, high to low Use the labels to give the requested order.
Response: a, c, e, b, d
